pIC50: −log10 of the molar value.
The next entries give measured pIC50 for HPK1 (MAP4K1) (Homo sapiens, UniProt Q92918).

Known results for compounds:
C/C(Nc1cc2n(n1)CCOC2)=C1/C(=O)Nc2ccc(-c3cnccc3C)cc21	> 7.30
C/C(Nc1cc(C)n(C(C)C)n1)=C1/C(=O)Nc2cnc(-c3cnccc3C)cc21	> 7.30
C/C(Nc1cnn(C)c1)=C1/C(=O)Nc2cnc(-c3cnc4c(c3C)NCCO4)cc21	6.30 to 7.00
C/C(Nc1ccn(CC(C)(C)O)n1)=C1/C(=O)Nc2cnc(-c3cnccc3C)cc21	> 7.30
COc1cccc(F)c1-c1ccc2c(c1)/C(=C(\C)Nc1ccc(N3CCN(C)CC3)cc1)C(=O)N2	> 7.30

[in] // map `COc1cccc(F)c1-c1ccc2c(c1)/C(=C(\C)Nc1ccn(C)n1)C(=O)N2` to recorded pIC50 (system: HPK1 (MAP4K1) (Homo sapiens, UniProt Q92918))
Sequence (Q92918 whole entry): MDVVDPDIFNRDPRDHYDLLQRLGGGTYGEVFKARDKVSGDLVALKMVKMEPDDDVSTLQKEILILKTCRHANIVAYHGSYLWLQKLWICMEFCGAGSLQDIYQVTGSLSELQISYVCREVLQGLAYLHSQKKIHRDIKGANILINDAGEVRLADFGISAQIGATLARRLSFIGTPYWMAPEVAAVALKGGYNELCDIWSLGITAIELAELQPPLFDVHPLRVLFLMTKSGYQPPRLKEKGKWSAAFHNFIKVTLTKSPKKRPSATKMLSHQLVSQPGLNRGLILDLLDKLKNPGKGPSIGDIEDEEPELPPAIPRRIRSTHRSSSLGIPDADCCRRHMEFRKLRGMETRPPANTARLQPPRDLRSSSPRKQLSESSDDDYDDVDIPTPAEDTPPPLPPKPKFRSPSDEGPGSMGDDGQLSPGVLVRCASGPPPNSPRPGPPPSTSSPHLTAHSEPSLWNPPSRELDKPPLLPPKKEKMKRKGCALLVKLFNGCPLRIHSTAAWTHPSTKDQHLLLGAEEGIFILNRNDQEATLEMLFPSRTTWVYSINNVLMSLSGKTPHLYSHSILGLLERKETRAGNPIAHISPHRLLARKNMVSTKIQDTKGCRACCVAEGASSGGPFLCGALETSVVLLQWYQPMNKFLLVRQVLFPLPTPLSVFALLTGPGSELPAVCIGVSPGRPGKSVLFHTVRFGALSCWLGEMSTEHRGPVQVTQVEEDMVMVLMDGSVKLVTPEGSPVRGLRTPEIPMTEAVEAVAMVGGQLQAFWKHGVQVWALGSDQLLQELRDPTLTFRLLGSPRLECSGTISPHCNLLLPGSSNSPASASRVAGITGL
[out] > 7.30

[in] Report pIC50 for `COc1cc2c(cc1N/C(C)=C1\C(=O)Nc3ccc(-c4c(F)cccc4OC)cc31)CNCC2` tested on HPK1 (MAP4K1) (Homo sapiens, UniProt Q92918).
[out] < 6.30

[in] Which measured pIC50 belongs to `C/C(Nc1cc(C)n(CCC(C)(C)O)n1)=C1/C(=O)Nc2cnc(-c3cnccc3C)cc21` , tested on HPK1 (MAP4K1) (Homo sapiens, UniProt Q92918)?
[out] > 7.30

[in] Find pIC50 (HPK1 (MAP4K1) (Homo sapiens, UniProt Q92918)) for the entry `C/C(Nc1cc(C)n([C@@H](C)C#N)n1)=C1/C(=O)Nc2cnc(-c3cnccc3C)cc21`
[out] > 7.30
